// Cathepsin B (Homo sapiens) pKi records
Please report pKi as the negative decimal logarithm of the molar concentration, giving only the number.

1) CC[C@H](NC(=O)O[C@H](C(=O)N1CCOCC1)C1CCCCC1)C(=O)c1nc2ccc(F)cc2o1 [Example 42] : 4.78
2) CCC[C@H](NC(=O)O[C@@H](CC1CCCCC1)C(=O)N1CCOCC1)C(=O)c1nc2cc(F)ccc2o1 [Example 54] : 5.36
3) CC[C@H](NC(=O)O[C@@H](CC1CCCCC1)C(=O)N1CCOCC1)C(=O)c1nc2cccnc2o1 [Example 39] : 5.28
4) CC[C@H](NC(=O)O[C@@H](CC1CCCCC1)C(=O)N(C)C)C(=O)c1nc2ccccc2o1 [Example 43] : 4.80

Let us examine a further case.
Prompt line: Short answer please: pKi, Cathepsin B (Homo sapiens), entry CC[C@H](NC(=O)O[C@@H](CC1CCCCC1)C(=O)N1CCCC1)C(=O)c1nc2ccc(F)cc2o1 [Example 55]
Response line: 5.04

---

- measuredTarget: Cathepsin S (Homo sapiens)
- Sequence (P25774 115-331): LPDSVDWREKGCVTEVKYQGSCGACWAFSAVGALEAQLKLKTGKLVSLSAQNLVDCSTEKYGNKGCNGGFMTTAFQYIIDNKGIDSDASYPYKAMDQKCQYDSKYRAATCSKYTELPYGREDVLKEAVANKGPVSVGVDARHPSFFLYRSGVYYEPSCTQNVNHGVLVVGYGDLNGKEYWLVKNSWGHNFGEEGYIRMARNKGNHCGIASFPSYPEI
metric: IC50 (nM)
Number in nM, nothing else.

Prompt line: Data request, read-out IC50, for O=C(N[C@H](C(=O)c1nc2ccccc2o1)C1CC1)O[C@@H](CC1CCCCC1)C(=O)N1CCOCC1
Response line: 6.6

---

- measuredTarget: Cathepsin L (Homo sapiens)
- Sequence (P07711 114-333, species assumed): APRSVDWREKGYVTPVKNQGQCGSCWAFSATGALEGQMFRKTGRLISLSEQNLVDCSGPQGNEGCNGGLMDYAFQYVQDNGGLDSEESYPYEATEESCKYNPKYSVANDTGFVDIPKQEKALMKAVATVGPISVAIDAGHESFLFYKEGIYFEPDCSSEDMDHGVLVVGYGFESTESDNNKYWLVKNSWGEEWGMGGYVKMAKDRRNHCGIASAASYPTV
metric: pKi
Please report pKi as the negative decimal logarithm of the molar concentration, giving only the number.

1. CC[C@H](NC(=O)O[C@@H](CC1CCCCC1)C(=O)N1CCOCC1)C(=O)c1nc2cc(Cl)ccc2o1 [Example 48] : 5.56

Let us examine a further case.
Prompt line: Short answer please: pKi, Cathepsin L (Homo sapiens), entry CC[C@H](NC(=O)O[C@@H](CC1CCCCC1)C(=O)N1CCOCC1)C(=O)c1nc2cccnc2o1 [Example 39]
Response line: 5.88

---

- measuredTarget: Cathepsin K (Homo sapiens)
- Sequence (P43235 115-329): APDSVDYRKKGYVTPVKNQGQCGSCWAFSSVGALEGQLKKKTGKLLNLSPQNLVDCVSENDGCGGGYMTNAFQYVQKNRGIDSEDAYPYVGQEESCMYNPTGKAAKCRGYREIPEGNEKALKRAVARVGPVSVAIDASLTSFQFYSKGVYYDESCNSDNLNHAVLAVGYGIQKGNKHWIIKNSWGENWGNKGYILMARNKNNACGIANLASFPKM
We begin with a simple list: items and their reported pKi.
Please report pKi as the negative decimal logarithm of the molar concentration, giving only the number.

Solved entries:
1) CC[C@H](NC(=O)O[C@@H](CC1CCCCC1)C(=O)N1CCOCC1)C(=O)c1nc2cccnc2o1 : 6.59
2) CCC[C@H](NC(=O)O[C@H](C(=O)N1CCOCC1)C1CCCCC1)C(=O)c1nc2ccccc2o1 : 6.95
3) CC[C@H](NC(=O)O[C@@H](CC1CCCCC1)C(=O)N(C)C)C(=O)c1nc2ccccc2o1 : 6.60
4) O=C(N[C@H](C(=O)c1nc2ccccc2o1)C1CC1)O[C@@H](CC1CCCCC1)C(=O)N1CCOCC1 : 5.29
5) CCC[C@H](NC(=O)O[C@@H](CC1CCCCC1)C(=O)N1CCOCC1)C(=O)c1nc2ccc(F)cc2o1 : 6.32
6) CCC[C@H](NC(=O)O[C@@H](CC1CCCCC1)C(=O)N1CCCC1)C(=O)c1nc2ccccc2o1 : 6.68

Let us examine a further case.
Prompt line: Data request, read-out pKi, for CCC[C@H](NC(=O)O[C@@H](CC1CCCCC1)C(=O)N1CCOCC1)C(=O)c1nc2cc(F)ccc2o1
Response line: 6.32

---

// UniProtKB P25774 pKi records
Please report pKi as the negative decimal logarithm of the molar concentration, giving only the number.

Solved entries:
1) O=C(N[C@H](C(=O)c1nc2ccccc2o1)C1CC1)O[C@@H](CC1CCCCC1)C(=O)N1CCOCC1 [Example 1] : 8.18
2) O=C(N[C@H](C(=O)c1nc2ccc(F)cc2o1)C1CC1)O[C@@H](CC1CCCCC1)C(=O)N1CCOCC1 [Example 40] : 8.68
3) CC[C@H](NC(=O)O[C@@H](CC1CCCCC1)C(=O)N1CCOCC1)C(=O)c1nc2cc(Cl)ccc2o1 [Example 48] : 8.55
4) CC[C@H](NC(=O)O[C@@H](CC1CCCCC1)C(=O)N1CCCC1)C(=O)c1nc2ccc(F)cc2o1 [Example 55] : 9.05

Let us examine a further case.
Prompt line: Data request, read-out pKi, for CCC[C@H](NC(=O)O[C@@H](CC1CCCCC1)C(=O)N1CCOCC1)C(=O)c1nc2ccc(F)cc2o1 [Example 44]
Response line: 9.30
